Provenance of the data: paper PMC11413451

biological target: human Slo3 (Homo sapiens, UniProt A8MYU2); construct: expressed in transfected cells; host or cells: CHO cells, transient co-transfection with pcDNA3.1(+) vectors; assay: Whole-cell patch-clamp of Slo3 currents in CHO cells co-expressing human Slo3 and LRRC52; format: cell-based; conditions: 50 μM steroid; +100 mV; n ≥ 3
Sequence (A8MYU2 whole entry): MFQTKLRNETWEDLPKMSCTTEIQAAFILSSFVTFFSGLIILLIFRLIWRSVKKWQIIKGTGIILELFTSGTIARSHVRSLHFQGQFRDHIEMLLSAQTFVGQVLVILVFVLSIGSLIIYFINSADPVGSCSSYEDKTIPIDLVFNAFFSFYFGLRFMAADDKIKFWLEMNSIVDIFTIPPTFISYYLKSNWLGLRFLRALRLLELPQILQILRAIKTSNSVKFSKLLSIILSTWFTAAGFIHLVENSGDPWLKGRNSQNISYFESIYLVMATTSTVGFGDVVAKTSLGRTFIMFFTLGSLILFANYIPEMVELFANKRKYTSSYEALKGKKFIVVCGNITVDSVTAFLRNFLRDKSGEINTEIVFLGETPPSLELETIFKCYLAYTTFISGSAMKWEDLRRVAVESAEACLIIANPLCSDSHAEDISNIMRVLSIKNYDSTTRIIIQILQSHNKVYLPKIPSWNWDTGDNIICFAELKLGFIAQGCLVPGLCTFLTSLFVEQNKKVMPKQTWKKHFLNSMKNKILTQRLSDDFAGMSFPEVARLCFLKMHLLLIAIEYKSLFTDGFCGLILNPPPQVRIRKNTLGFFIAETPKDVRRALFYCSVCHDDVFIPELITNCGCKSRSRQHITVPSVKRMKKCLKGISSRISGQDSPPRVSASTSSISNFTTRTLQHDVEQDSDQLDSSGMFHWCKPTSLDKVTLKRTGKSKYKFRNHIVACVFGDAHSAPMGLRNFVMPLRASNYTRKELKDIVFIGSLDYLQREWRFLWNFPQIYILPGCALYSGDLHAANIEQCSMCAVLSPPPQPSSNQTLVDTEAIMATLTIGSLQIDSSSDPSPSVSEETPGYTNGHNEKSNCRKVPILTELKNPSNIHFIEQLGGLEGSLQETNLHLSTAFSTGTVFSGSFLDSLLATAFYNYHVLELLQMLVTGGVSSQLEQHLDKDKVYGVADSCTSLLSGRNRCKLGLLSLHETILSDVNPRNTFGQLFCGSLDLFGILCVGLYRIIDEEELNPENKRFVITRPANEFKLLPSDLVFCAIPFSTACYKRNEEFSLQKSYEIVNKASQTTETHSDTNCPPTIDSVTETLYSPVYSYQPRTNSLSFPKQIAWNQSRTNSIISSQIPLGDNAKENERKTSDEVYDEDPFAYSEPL
Sequence (Q8N7C0 24-313 partner): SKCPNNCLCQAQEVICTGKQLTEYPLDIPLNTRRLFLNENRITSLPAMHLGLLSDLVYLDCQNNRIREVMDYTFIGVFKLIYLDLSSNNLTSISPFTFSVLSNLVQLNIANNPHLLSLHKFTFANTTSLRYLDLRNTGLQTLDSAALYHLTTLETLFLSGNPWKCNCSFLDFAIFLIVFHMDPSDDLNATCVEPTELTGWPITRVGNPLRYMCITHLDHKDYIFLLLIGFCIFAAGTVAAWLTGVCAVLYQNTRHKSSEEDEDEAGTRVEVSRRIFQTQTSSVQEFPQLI
Measured property: decrease of Slo3 current amplitude

CC(=O)C1(O)CCC2C3CCC4=CC(=O)CCC4(C)C3CCC21C (stereo not drawn) [17α-hydroxyprogesterone] ... significantly decreased
C[C@]12CC[C@H]3[C@@H](CC=C4C[C@@H](O)CC[C@@]43C)[C@@H]1CC[C@@H]2O [androstenediol] ... ≤ 18%
C[C@]12CCC(=O)C=C1CC[C@@H]1[C@@H]2C(=O)C[C@@]2(C)[C@H]1CC[C@]2(O)C(=O)CO [cortisone] ... ≤ 18%
C[C@]12C[C@H](O)[C@H]3[C@@H](CCC4=CC(=O)CC[C@@]43C)[C@@H]1CC[C@@H]2C(=O)CO [corticosterone] ... significantly decreased
CC(=O)[C@H]1CC[C@H]2[C@@H]3CC=C4C[C@@H](O)CC[C@]4(C)[C@H]3CC[C@]12C [pregnenolone] ... ≤ 18%
CC(=O)[C@@]1(O)CC[C@H]2[C@@H]3CC=C4C[C@@H](O)CC[C@]4(C)[C@H]3CC[C@@]21C [17α-hydroxypregnenolone] ... ≤ 18%
C[C@]12CC[C@@H]3c4ccc(O)cc4CC[C@H]3[C@@H]1CCC2=O [estrone] ... ≤ 18%
CC(=O)[C@H]1CC[C@H]2[C@@H]3CCC4=CC(=O)CC[C@]4(C)[C@H]3CC[C@]12C [progesterone] ... significantly decreased
C[C@]12CC[C@H](O)CC1=CC[C@@H]1[C@@H]2CC[C@]2(C)C(=O)CC[C@@H]12 [DHEA, dehydroepiandrosterone] ... significantly decreased
C[C@]12CC[C@H]3[C@@H](CCC4=CC(=O)CC[C@@]43C)[C@@H]1CC[C@@H]2O [testosterone] ... significantly decreased
C[C@]12CCC(=O)C=C1CC[C@@H]1[C@@H]2CC[C@]2(C)C(=O)CC[C@@H]12 [androstenedione] ... ≤ 18%
C[C@]12CC[C@@H]3c4ccc(O)cc4CC[C@H]3[C@@H]1CC[C@@H]2O [estradiol] ... significantly decreased
